test: compound effects on lung adenocarcinoma cell viability – A549, calcein-AM fluorescence, 48 h, basal, profiling panel (AID 1162); conditions: higher = more signal; further: test concentration not given here
Value Type: z-score
Please reply with the number alone, leaving off any unit.

Q: Query: z-score; subject: CC(C)N1CC=CC23O[C@@H]4C=CCOC(=O)[C@@H]4[C@H]2C(=O)N(CCCCCO)[C@@H]3C1=O (some centres undefined)
A: 0.522

Q: Using the record for `Cc1c(NC(=O)/C(C#N)=C/c2cccc([N+](=O)[O-])c2)c(=O)n(-c2ccccc2)n1C` , report its z-score.
A: 4.01

Q: Please give the measured z-score for this molecule: `COCCOC(=O)N1C(=O)[C@@]2(c3ccccc31)[C@H](C(=O)N1CCCCCCC1)[C@H]1C(=O)O[C@H](c3ccccc3)[C@H](c3ccccc3)N1[C@@H]2c1ccc(OCCO)cc1`
A: -0.134

Q: Reported z-score for `O=C(CS)NCCCCCNC(=O)[C@@H]1C[C@@H]2C(=O)NCC(=O)N2[C@@H]1c1cccc(OCCO)c1` : what is it?
A: 0.686

Q: Given `O=c1cccc(-c2ccccc2Cl)o1` , state its recorded z-score.
A: 0.586

Q: Data request, read-out z-score, for `O=C1O[C@@H](c2ccccc2)[C@@H](c2ccccc2)N2[C@@H](c3ccccc3OCCO)[C@]3(C(=O)Nc4ccccc43)[C@@H](C(=O)O)[C@H]12`
A: -0.796

Q: Name the reported z-score value associated with the molecule `COC(=O)C(CC#Cc1ccc2c(c1)[C@]1(C(=O)N2)[C@H](c2ccc(O)cc2)N2[C@H](c3ccccc3)[C@H](c3ccccc3)OC(=O)[C@H]2[C@@H]1C(=O)N1CCN(c2ncccn2)CC1)C(=O)OC`
A: -0.112

Q: // z-score lookup, key: `Cc1ccc(S[C@]2(C(=O)O)CC(=O)N(Cc3ccccc3C(F)(F)F)[C@@H]2c2ccc(CO)cc2I)cc1`
A: 0.0342

Q: Look up z-score for this molecule: `C=CCNC(=O)[C@H]1[C@@H]2C(=O)O[C@@H](c3ccccc3)[C@@H](c3ccccc3)N2[C@@H](c2ccc(O)cc2)[C@]12C(=O)Nc1ccc(C#CCCO)cc12`
A: 0.838

Q: Would you kindly share the measured z-score for O=C1C2C=CC(C(O)C=Cc3ccc([N+](=O)[O-])cc3)N(n3cnnc3)C2C(=O)N1Cc1ccccc1 (centres undefined) ?
A: -0.915

Q: Fill in the blank: the reported z-score of `COC(=O)[C@@]1(Cc2ccc(OC)cc2)[C@H]2c3cc(C(=O)N(C)C)n(Cc4ccc(C(F)(F)F)nc4)c3C[C@H]2CN1C(=O)c1ccccc1` is ____.
A: 0.212

Q: What z-score value was documented for this molecule, `NCCCCCNC(=O)[C@H]1C[C@H]2C(=O)N[C@@H](Cc3ccccc3)C(=O)N2[C@H]1c1cccc(OCCO)c1` ?
A: 1.15

Q: Endpoint output: z-score of `COC(=O)C(CC#Cc1ccc2c(c1)[C@]1(C(=O)N2)[C@H](c2ccccc2OCCO)N2[C@H](c3ccccc3)[C@H](c3ccccc3)OC(=O)[C@H]2[C@@H]1C(N)=O)C(=O)OC` . Value?
A: -0.387

Q: // lookup z-score for `CCCC[C@H]1C[C@@H]1[C@@H]1N(P(=O)(c2ccccc2)c2ccccc2)C[C@@](O)(c2ccccc2)CC12CC2`
A: -3.9
